- Test system: DU-145
- protocol_summary: Induction of apoptosis in human DU145 cells at 5 uM assessed as dead cell level after 72 hrs by AnnexinV conjugated 7- AAD staining by flow cytometry
- Assay type: functional
Cut-off 5% on Activity, inclusive. At or above means YES; below means NO.

Does Activity meet or surpass 5% for O=C1C=C(N2CCC(c3ccccc3)CC2)C(=O)c2c(O)cccc21 ?
YES

Tell me whether Activity is at least 5% here: O=C1C=C(N2CCC(c3ccc(Cl)cc3)CC2)C(=O)c2c(O)cccc21
NO

Answer whether Activity of O=C1C=C(N2CCN(c3ccccc3Cl)CC2)C(=O)c2ccccc21 is greater than or equal to 5%.
NO

// inclusive: Activity at least 5%? input: Cc1ccccc1C1CCN(C2=CC(=O)c3cccc(O)c3C2=O)CC1
NO

Check the entry Cc1ccccc1N1CCN(C2=CC(=O)c3cccc(O)c3C2=O)CC1 : does Activity equal or exceed 5%?
YES

// inclusive: Activity at least 5%? input: O=C1C=C(N2CCN(c3ccccc3)CC2)C(=O)c2c(O)ccc(O)c21
NO

meta.source: ChEMBL document CHEMBL1782036
